- CONDITIONS USED: 318.15 K; 101 kPa; Liquid
# viscosity >= 5 mPa·s gives True, anything below gives False

CCCCCCCO [heptan-1-ol]: False

Is viscosity for CCCCCCCCCO [nonan-1-ol] at or above 5 mPa·s? False

Textbook exercise: given the entry CCCCn1cc[n+](C)c1.N#C[S-] [1-butyl-3-methylimidazolium thiocyanate] , state whether its viscosity is greater than or equal to 5 mPa·s. True

Would you say CCCCCCCCCCO [decan-1-ol] shows viscosity at minimum 5 mPa·s? True

Given CCCCCCCCO [octan-1-ol] , state whether its viscosity is at least 5 mPa·s. False

Value source: the NIST ThermoML archive (doi:10.1021/je901043q)
